Items are presented alongside their recorded protein stability index.
B1: ACSBG2 (parent)
chain: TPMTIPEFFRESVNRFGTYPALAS

Variants of: B1
method: protein stability index of a GFP-peptide fusion (GPS, HEK-293T) (PSI 1-6); higher = more stable;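 note: lentivirally expressed fusions sorted by FACS into six bins by GFP to DsRed ratio, PSI derived from sequencing read proportions per bin multiplied by bin number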
measurement.setup: c terminus: a fixed tail appended
Could you keep your reply to the number by itself?

[in] // protein stability index lookup, key: TPMHIPEFFRESVNRFGTYPALAS
[out] 2.38

Origin of measurements: the supplement of paper PMC10567573
